tested on: KM12 colon; test: NCI tumour cell line growth inhibition, 48 h
Provide the recorded TGI for the entries that follow.

Challenge: Using the record for `CCOP(=O)(OCC)/C(C#N)=C/c1cccn1C` , state its measured TGI.
Response given: > 100 µM

Challenge: Annotate the compound CCOC(=O)C1=C(C)N(Cc2ccccc2)C2(O)C=CC(=O)C3C(=O)N(c4ccccc4)C(=O)C132 (centres undefined) with its measured TGI.
Response given: 4.59 µM

Challenge: Return reported TGI. Input compound: CCCCCCCCCCCCCCCCNc1nc(=O)n(C2CC(O)C(COP(=O)(O)OC3CC(n4cc(F)c(=O)[nH]c4=O)OC3CO)O2)cc1F (centres undefined)
Response given: > 81.4 µM

Challenge: Complete the entry with TGI for `Cc1cc(NS(=O)(=O)c2ccc(NC(=O)c3ccc4nc5ccccc5c(Nc5ccc(S(N)(=O)=O)cc5)c4c3)cc2)no1`
Response given: 59.1 µM

Challenge: Please report TGI for the following compound: CCOC1OC(CO[Si](C)(C)C(C)(C)C)C(O)CC1n1ccc(=O)[nH]c1=O (centres undefined)
Response given: > 100 µM

Challenge: Return TGI (reported value) for this compound: `CC(C)(C)c1ccc(OCCCCCCCN2CCNCC2)cc1`
Response given: 3.6 µM

Challenge: Answer with the recorded TGI of CCOC(=O)CCC(NC(=O)c1ccc(Oc2nc3cc(N)cc(N)c3nc2-c2ccccc2)cc1)C(=O)OCC (centres undefined) only.
Response given: > 100 µM

Challenge: Complete the entry with TGI for `O=c1oc2cc(O)ccc2cc1-c1nc2ccccc2o1`
Response given: 93 µM

Challenge: Determine its reported TGI: Cc1cc(O)c(C(O)c2ccccn2)cc1O (centres undefined)
Response given: 82.3 µM

Challenge: # return recorded TGI for input NNC(=S)N/N=C(\c1nc2ccc(Cl)cc2[nH]c1=O)C(O)c1cccc([N+](=O)[O-])c1 (centres undefined)
Response given: > 100 µM

Challenge: Give the reported TGI for this compound. `CN1C=C(C(N)=O)Cc2ccsc21`
Response given: > 100 µM

Challenge: Give TGI for the following compound: COc1ccc(-n2c(C)nc3ccc(NC4OC(COC(C)=O)C(OC(C)=O)C(OC(C)=O)C4OC(C)=O)cc3c2=O)cc1 (centres undefined)
Response given: > 100 µM

Challenge: Specify TGI for `O=[N+]([O-])c1cc2c(ccc3ccccc32)o1` and stop.
Response given: 4.02 µM

Challenge: Output TGI of `COc1cc2c(c(OC)c1OC)[C@@H]1CCCCC[C@@H]1CCC2=O`
Response given: > 100 µM

Challenge: Input O=C1NCC2(CCN(CC3COc4ccccc4O3)CC2)N1c1ccccc1 (centres undefined) , output reported TGI.
Response given: > 100 µM

Challenge: Specify measured TGI for `Cc1nc2ccccc2c(/C=C/c2ccc(F)cc2)c1C(=O)/C=C/c1ccccc1` .
Response given: 6.82 µM

Challenge: Note TGI for the compound shown: `COC(=O)c1cc2c3cc(Cl)ccc3[nH]c2c2ncccc12`
Response given: > 100 µM

Challenge: Give me measured TGI, please, for this compound: `CCSc1c2cc(OC)ccc2nc2ccc(OC)cc12`
Response given: > 55.6 µM

Challenge: For the compound `COc1cccc(/C=C2\COc3ccc(O)c(O)c3C2=O)c1OC` , give its reported TGI.
Response given: 3.92 µM

Challenge: Tell us which TGI value is on record for `CCOC(=O)/C(=C\n1c(=O)sc2ccccc21)C(=O)c1ccccc1`
Response given: > 100 µM

Challenge: Determine from records and report TGI for COc1ccc2c(c1)C1Oc3ccccc3CC1CO2 (centres undefined)
Response given: > 100 µM

Challenge: Given C=C(Cl)C(Cl)(CBr)CCCC(C)C (centres undefined) , respond with its TGI.
Response given: 24.2 µM

Challenge: Report measured TGI; entry is `O=[N+]([O-])C(=C1c2ccccc2-c2ccccc21)[N+](=O)[O-]`
Response given: > 100 µM

Challenge: Give recorded TGI. CC(=O)OC1C(C)OC(Oc2c(-c3ccc(O)cc3)oc3cc(O)cc(O)c3c2=O)C(O)C1OC(C)=O (centres undefined)
Response given: > 83.8 µM

Challenge: Return reported TGI. Input compound: `O=C1C=CC(=O)N1c1ccc2ccccc2c1`
Response given: 71 µM

Challenge: Name the recorded TGI of the compound listed here: `NC(N)=NS(=O)(=O)c1ccc(NCc2cccc3c(=O)c4ccc(Cl)cc4oc23)cc1`
Response given: > 25 µM

Challenge: Given the compound O=C1Sc2sc(=S)sc2SC1c1ccccc1 (centres undefined) , write its reported TGI.
Response given: > 100 µM

Challenge: Return the recorded TGI value; entry: CC1(C)CCOC(Sc2ccccc2)C1 (centres undefined)
Response given: > 100 µM

Challenge: Please report TGI for the following compound: `O=NN(CC(=O)NNc1ccccc1)CC(=O)NNc1ccccc1`
Response given: > 100 µM

Challenge: Identify the reported TGI for the following entry. `N=c1oc2ccccc2cc1C(=O)Nc1ccccn1`
Response given: > 100 µM

Challenge: Item `COC(=O)/C=C1\C(=O)Nc2ccc(Br)cc21` : provide TGI
Response given: 4.8 µM

Challenge: For the compound `CC(C)(CO)CNc1nc(N)nc(Cl)c1C=O` , give its reported TGI.
Response given: > 100 µM

Challenge: Name the recorded TGI of the item `Oc1ccc(Br)cc1C=Nc1ccc(Oc2ccc(N=Cc3cc(Br)ccc3O)cc2)cc1` in your answer.
Response given: > 19.6 µM

Challenge: Give me measured TGI, please, for this compound: `NC(N)=N/N=C/c1c(Cl)nc2n1CCS2`
Response given: > 100 µM
